For each record, write down the corresponding MIC.
test system: Enterococcus faecium; experiment: Antibacterial activity against vancomycin-resistant Enterococcus faecium 628016.; assay type: functional
One number for each entry, in µg/mL.

Study these solved cases before continuing.
{"item-smiles": "C[C@@H](O)[C@H]1C(=O)N2C(C(=O)[O-])=C(COc3ccc4cc(Cn5cc[n+](C)c5)ccc4c3)[C@H](C)[C@H]12", "MIC, µg/mL": 2}
{"item-smiles": "C[C@@H](O)[C@H]1C(=O)N2C(C(=O)O)=C(COc3ccc4occc(=O)c4c3)[C@H](C)[C@H]12", "MIC, µg/mL": 2}
{"item-smiles": "C[C@@H](O)[C@H]1C(=O)N2C(C(=O)O)=C(COc3cccc4c3C/C(=C\\c3cccs3)C4=O)[C@H](C)[C@H]12", "MIC, µg/mL": 4}
{"item-smiles": "C[C@@H](O)[C@H]1C(=O)N2C(C(=O)O)=C(CSc3ccc4ccccc4n3)[C@H](C)[C@H]12", "MIC, µg/mL": 1}
{"item-smiles": "C[C@@H](O)[C@H]1C(=O)N2C(C(=O)O)=C(COc3ccc4cc(C(N)=O)ccc4c3)[C@H](C)[C@H]12", "MIC, µg/mL": 1}
{"item-smiles": "C[C@@H](O)[C@H]1C(=O)N2C(C(=O)O)=C(Sc3ccc4ccccc4c3)[C@H](C)[C@H]12", "MIC, µg/mL": 8}

# batch: return MIC for each of the 3 molecules below
1. C[C@@H](O)[C@H]1C(=O)N2C(C(=O)O)=C(CSc3ccc4c(c3)CC(=O)N4C)[C@H](C)[C@H]12
2. C[C@@H](O)[C@H]1C(=O)N2C(C(=O)O)=C(CSc3ccc4ccccc4c3)[C@H](C)[C@H]12
3. C[C@@H](O)[C@H]1C(=O)N2C(C(=O)O)=C(Sc3ccc(C#N)c4ccccc34)[C@H](C)[C@H]12

Output:
8
128
2

---

For each record, write down the corresponding log10(MIC).
test system: Streptococcus pneumoniae; assay: Antibacterial activity against penicillin-resistant Streptococcus pneumoniae 671319; format: functional
Please keep in mind that the values are log10 of MIC expressed in µg/mL.

{"item-smiles": "C[C@@H](O)[C@H]1C(=O)N2C(C(=O)O)=C(COc3ccc4occc(=O)c4c3)[C@H](C)[C@H]12", "target-desc": "Streptococcus pneumoniae", "log10(MIC)": -1.52}

# batch: return log10(MIC) for each of the 4 compounds below
1. C[C@@H](O)[C@H]1C(=O)N2C(C(=O)O)=C(CSc3ccc4ccccc4c3)[C@H](C)[C@H]12
2. C[C@@H](O)[C@H]1C(=O)N2C(C(=O)O)=C(COc3cccc4c3CCCC4=O)[C@H](C)[C@H]12
3. C[C@@H](O)[C@H]1C(=O)N2C(C(=O)O)=C(SCCc3ccc4ccccc4c3)[C@H](C)[C@H]12
4. C[C@@H](O)[C@H]1C(=O)N2C(C(=O)O)=C(CSc3ccc4c(c3)CC(=O)N4C)[C@H](C)[C@H]12

Output:
1: 0.00; 2: -1.22; 3: -0.30; 4: -0.60

# batch: return log10(MIC) for each of the 2 compounds below
1. C[C@@H](O)[C@H]1C(=O)N2C(C(=O)O)=C(COc3ccc4ccccc4c3)[C@H](C)[C@H]12
2. C[C@@H](O)[C@H]1C(=O)N2C(C(=O)[O-])=C(COc3ccc4nc(C[n+]5ccccc5)sc4c3)[C@H](C)[C@H]12

Output:
1. 0.60
2. -1.22
